- MEASUREMENT TARGET: Virion infectivity factor (Human immunodeficiency virus type 1 group M subtype B (isolate BH10)) + Virion infectivity factor (Human immunodeficiency virus type 1 group M subtype B (isolate BRU/LAI)) + Virion infectivity factor (Human immunodeficiency virus type 1 group M subtype B (isolate PCV12)) + Virion infectivity factor (Human immunodeficiency virus type 1 group M subtype B (isolate HXB2)) + DNA dC->dU-editing enzyme APOBEC-3G (Homo sapiens) (UniProt P69720+P69721+P69722+P69723+Q9HC16)
- PROTOCOL DESCRIPTION: inhibitors of Vif binding to APOBEC3G peptide, primary screen, biochemical, TR-FRET, GST-Vif 1-94, biotin-A3G peptide, dose response retest (AID 1117319);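 also: Vif residues 1-94 fused to GST binding biotinylated APOBEC3G peptide 110-148; 0% = full assay without inhibitor and 100% = GST in place of GST-Vif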
- ASSAY CONTEXT: stronger effect = higher value
Out of some 260,000 compounds screened, about 1,500 (0.58%) were called active. Not shown: some 5% with an inconclusive outcome. The list is a sample of the results. Results with a measured potency or affinity are listed apart.
REPORTED METRIC: inhibition (%)
Write it as a number; the unit % goes unstated.

Solved cases below.
CCCCN(CC)CCNC(=O)c1nn(-c2ccc(OC)cc2)c(=O)c2c1c1ccccc1n2C ... 6.38
O=C1C=CC(=O)N1CCCCCCCCCCN1C(=O)C=CC1=O ... -0.57
CCCc1c(C)[nH]c2ccccc2c1=O ... 6.62
O=C(/C=C/c1cccs1)Nc1cccc(NC(=O)/C=C/c2cccs2)n1 ... 13.7
CC(=O)NC1=NN(C(C)=O)C(C)(c2cccs2)S1 (stereo unspecified) ... 2.86

For the next question, use this compound.
Name the recorded inhibition of the compound listed here: C=CCN1C(=O)/C(=C/c2ccsc2)SC1=S
21.3
